Provide the recorded MIC VISA for the entries that follow.
Tested on: Vancomycin-intermediate S. aureus NRS1
Experiment: microbe, parasite or virus in culture
Details: Vancomycin-intermediate NRS1
Experimental: Antimicrobial activity of compounds was tested against a number of bacterial strains by broth microdilution (BMD) assay with MIC determination, including S. aureus (MSSA ATCC® 29213™, MRSA ATCC® 43300™, VISA NARSA NRS1, VISA NARSA NRS4), Streptococcus pneumoniae (MDR ATCC® 700677™) and Enterococcus faecium (MDR VanA ATCC® 51559™). […]
The reply should contain only the number, in µg/mL.

Look up and report MIC VISA, with Vancomycin-intermediate S. aureus NRS1 as system, for CCCCCCCCCCC(=O)N[C@@H](CCCCN)C(=O)N[C@@H](CCCCN)C(=O)N[C@@H](CCCCNC(=O)[C@H]1NC(=O)[C@H]2NC(=O)[C@H](NC(=O)[C@@H]3NC(=O)[C@H](CC(N)=O)NC(=O)[C@H](NC(=O)[C@@H](CC(C)C)NC)[C@H](O)c4ccc(c(Cl)c4)Oc4cc3cc(c4O[C@@H]3O[C@H](CO)[C@@H](O)[C@H](O)[C@H]3O[C@H]3C[C@](C)(N)[C@H](O)[C@H](C)O3)Oc3ccc(cc3Cl)[C@H]2O)c2ccc(O)c(c2)-c2c(O)cc(O)cc21)C(=O)NC [Compound 22, nC10CO-KK-K(Vancomycin)-NHMe]
0.125

Look up and report MIC VISA, with Vancomycin-intermediate S. aureus NRS1 as system, for CCCCCCCCCCCC(=O)N[C@@H](CCCCN)C(=O)N[C@@H](CCCCN)C(=O)N[C@@H](CCCCN)C(=O)N[C@@H](CCCCNC(=O)[C@H]1NC(=O)[C@H]2NC(=O)[C@H](NC(=O)[C@@H]3NC(=O)[C@H](CC(N)=O)NC(=O)[C@H](NC(=O)[C@@H](CC(C)C)NC)[C@H](O)c4ccc(c(Cl)c4)Oc4cc3cc(c4O[C@@H]3O[C@H](CO)[C@@H](O)[C@H](O)[C@H]3O[C@H]3C[C@](C)(N)[C@H](O)[C@H](C)O3)Oc3ccc(cc3Cl)[C@H]2O)c2ccc(O)c(c2)-c2c(O)cc(O)cc21)C(=O)O [Compound 37, nC11CO-KKK-K(Vancomycin)-OH]
0.06

----------
Test system: Vancomycin-intermediate S. aureus NRS1
Assay: microbe, parasite or virus in culture
Settings: Vancomycin-intermediate NRS1
Provide the recorded MIC VISA for the entries that follow.
Give me the value, and tack the unit on after it.

Read off the recorded MIC VISA for CCCCCCCCCCC(=O)N[C@@H](CCCCN)C(=O)N[C@@H](CCCCN)C(=O)N[C@@H](CCCCNC(=O)[C@H]1NC(=O)[C@H]2NC(=O)[C@H](NC(=O)[C@@H]3NC(=O)[C@H](CC(N)=O)NC(=O)[C@H](NC(=O)[C@@H](CC(C)C)NC)[C@H](O)c4ccc(c(Cl)c4)Oc4cc3cc(c4O[C@@H]3O[C@H](CO)[C@@H](O)[C@H](O)[C@H]3O[C@H]3C[C@](C)(N)[C@H](O)[C@H](C)O3)Oc3ccc(cc3Cl)[C@H]2O)c2ccc(O)c(c2)-c2c(O)cc(O)cc21)C(N)=O [Compound 21, nC10CO-KK-K(Vancomycin)-NH2]
0.06 µg/mL

Read off the recorded MIC VISA for CCCCCCCCCC(=O)N[C@@H](CCCCN)C(=O)N[C@@H](CCCCN)C(=O)N[C@@H](CCCCN)C(=O)N[C@@H](CCCCNC(=O)[C@H]1NC(=O)[C@H]2NC(=O)[C@H](NC(=O)[C@@H]3NC(=O)[C@H](CC(N)=O)NC(=O)[C@H](NC(=O)[C@@H](CC(C)C)NC)[C@H](O)c4ccc(c(Cl)c4)Oc4cc3cc(c4O[C@@H]3O[C@H](CO)[C@@H](O)[C@H](O)[C@H]3O[C@H]3C[C@](C)(N)[C@H](O)[C@H](C)O3)Oc3ccc(cc3Cl)[C@H]2O)c2ccc(O)c(c2)-c2c(O)cc(O)cc21)C(=O)O
0.75 µg/mL

----------
Tested on: Methicillin-resistant S. aureus ATCC 43300
Experiment: microbe, parasite or virus in culture
Conditions: ATCC 43300, 24 h
Property name: MIC MRSA (µg/mL)
The reply should contain only the number, in µg/mL.

Look up and report MIC MRSA, with Methicillin-resistant S. aureus ATCC 43300 as system, for CCCCCCCCCCC(=O)N[C@@H](CCCCN)C(=O)N[C@@H](CCCCN)C(=O)N[C@@H](CCCCNC(=O)[C@H]1NC(=O)[C@H]2NC(=O)[C@H](NC(=O)[C@@H]3NC(=O)[C@H](CC(N)=O)NC(=O)[C@H](NC(=O)[C@@H](CC(C)C)NC)[C@H](O)c4ccc(c(Cl)c4)Oc4cc3cc(c4O[C@@H]3O[C@H](CO)[C@@H](O)[C@H](O)[C@H]3O[C@H]3C[C@](C)(N)[C@H](O)[C@H](C)O3)Oc3ccc(cc3Cl)[C@H]2O)c2ccc(O)c(c2)-c2c(O)cc(O)cc21)C(=O)O [Compound 19, nC10CO-KK-K(Vancomycin)-OH]
0.03

----------
Assay: In vivo pharmacokinetics in mice
Settings: male, CD1, plasma; mouse, IV 2 mg kg-1
Property name: AUC(0-t) (ng·h/mL)
The reply should contain only the number, in ng·h/mL.

Read off the recorded AUC(0-t) for CN[C@H](CC(C)C)C(=O)N[C@H]1C(=O)N[C@@H](CC(N)=O)C(=O)N[C@H]2C(=O)N[C@H]3C(=O)N[C@H](C(=O)N[C@H](C(=O)O)c4cc(O)cc(O)c4-c4cc3ccc4O)[C@H](O)c3ccc(c(Cl)c3)Oc3cc2cc(c3O[C@@H]2O[C@H](CO)[C@@H](O)[C@H](O)[C@H]2O[C@H]2C[C@](C)(N)[C@H](O)[C@H](C)O2)Oc2ccc(cc2Cl)[C@H]1O
3210

----------
System: Methicillin-resistant S. aureus ATCC 43300
Test: microbe, parasite or virus in culture
Conditions: ATCC 43300, 24 h
Method: Antimicrobial activity of compounds was tested against a number of bacterial strains by broth microdilution (BMD) assay with MIC determination, including S. aureus (MSSA ATCC® 29213™, MRSA ATCC® 43300™, VISA NARSA NRS1, VISA NARSA NRS4), Streptococcus pneumoniae (MDR ATCC® 700677™) and Enterococcus faecium (MDR VanA ATCC® 51559™). […]
Residues, ends and D or L forms follow the SMILES beside them. *: point of attachment. Myristoyl = CCCCCCCCCCCCCC(=O)*
Property name: MIC MRSA

Read off the recorded MIC MRSA for CCCCCCCCCCCCCC(=O)NCC(=O)N[C@@H](CO)C(=O)N[C@@H](CCCCN)C(=O)N[C@@H](CCCCN)C(=O)N[C@@H](CCCCN)C(=O)N[C@@H](CS)C(N)=O [Compound 13a, Myristoyl-GSKKKC-NH 2] (Myristoyl-GSKKKC-NH2)
>8 µg/mL

Read off the recorded MIC MRSA for CCCCCCCCCCC(=O)N[C@@H](CCCCNC(=O)[C@H]1NC(=O)[C@H]2NC(=O)[C@H](NC(=O)[C@@H]3NC(=O)[C@H](CC(N)=O)NC(=O)[C@H](NC(=O)[C@@H](CC(C)C)NC)[C@H](O)c4ccc(c(Cl)c4)Oc4cc3cc(c4O[C@@H]3O[C@H](CO)[C@@H](O)[C@H](O)[C@H]3O[C@H]3C[C@](C)(N)[C@H](O)[C@H](C)O3)Oc3ccc(cc3Cl)[C@H]2O)c2ccc(O)c(c2)-c2c(O)cc(O)cc21)C(=O)O [Compound 20, nC10CO-K(Vancomycin)-OH]
0.125 µg/mL

Read off the recorded MIC MRSA for CCCCCCCCCCCCCC(=O)NCC(=O)N[C@@H](CO)C(=O)N[C@@H](CCCCN)C(=O)N[C@@H](CCCCN)C(=O)N[C@@H](CCCCN)C(=O)N[C@@H](CSSCCNC(=O)[C@H]1NC(=O)[C@H]2NC(=O)[C@H](NC(=O)[C@@H]3NC(=O)[C@H](CC(N)=O)NC(=O)[C@H](NC(=O)[C@@H](CC(C)C)NC)[C@H](O)c4ccc(c(Cl)c4)Oc4cc3cc(c4O[C@@H]3O[C@H](CO)[C@@H](O)[C@H](O)[C@H]3O[C@H]3C[C@](C)(N)[C@H](O)[C@H](C)O3)Oc3ccc(cc3Cl)[C@H]2O)c2ccc(O)c(c2)-c2c(O)cc(O)cc21)C(=O)O
<0.003 µg/mL

----------
Assay: In vivo pharmacokinetics in mice
Settings: male, CD1, plasma; mouse, 2 mg/kg IV, 2.00 h; read-out: Plasma concentration, Mean IV
Property name: concentration at 2 h (ng/mL)
The reply should contain only the number, in ng/mL.

Read off the recorded concentration at 2 h for CN[C@H](CC(C)C)C(=O)N[C@H]1C(=O)N[C@@H](CC(N)=O)C(=O)N[C@H]2C(=O)N[C@H]3C(=O)N[C@H](C(=O)N[C@H](C(=O)O)c4cc(O)cc(O)c4-c4cc3ccc4O)[C@H](O)c3ccc(c(Cl)c3)Oc3cc2cc(c3O[C@@H]2O[C@H](CO)[C@@H](O)[C@H](O)[C@H]2O[C@H]2C[C@](C)(N)[C@H](O)[C@H](C)O2)Oc2ccc(cc2Cl)[C@H]1O
193
